# test_target: PTK6 (human)
# test_name: Caliper, Mobility shift assay off-chip
# experimental_context: compound 0.02 µM
# inhibition listing for each entry below
Numeric answer only, unit % assumed.

Fill in inhibition for record COc1cc2c(Oc3ccc4[nH]c(C)cc4c3F)ncnc2cc1OCCCN1CCCC1 44.1

====

# test_target: AKT2 (human) (UniProt P31751)
# Sequence (P31751 whole entry, looked up): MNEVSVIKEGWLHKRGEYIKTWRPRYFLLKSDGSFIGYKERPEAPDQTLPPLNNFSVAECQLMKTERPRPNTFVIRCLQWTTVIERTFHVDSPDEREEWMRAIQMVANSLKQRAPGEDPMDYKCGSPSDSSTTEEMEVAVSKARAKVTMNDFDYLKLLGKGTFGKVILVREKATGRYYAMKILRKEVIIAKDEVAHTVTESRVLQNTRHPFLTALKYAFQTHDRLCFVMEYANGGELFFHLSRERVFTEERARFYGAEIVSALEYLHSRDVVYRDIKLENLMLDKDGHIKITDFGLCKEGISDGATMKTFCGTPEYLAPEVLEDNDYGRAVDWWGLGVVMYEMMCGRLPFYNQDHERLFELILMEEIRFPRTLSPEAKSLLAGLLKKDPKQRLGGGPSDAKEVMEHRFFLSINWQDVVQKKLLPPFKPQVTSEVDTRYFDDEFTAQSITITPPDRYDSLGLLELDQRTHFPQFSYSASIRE
# test_name: Caliper, Mobility shift assay off-chip
# experimental_context: compound 0.02 µM
assay_endpoint: inhibition (%)
Numeric answer only, unit % assumed.

Fill in inhibition for record CNC(=O)c1ccccc1Sc1ccc2c(/C=C/c3ccccn3)n[nH]c2c1 -4.1

Fill in inhibition for record Cc1ccc(Nc2nccc(N(C)c3ccc4c(C)n(C)nc4c3)n2)cc1S(N)(=O)=O 4.7

Fill in inhibition for record COc1cc2c(Oc3ccc4[nH]c(C)cc4c3F)ncnc2cc1OCCCN1CCCC1 6.9

Fill in inhibition for record CNC(=O)c1cc(Oc2ccc(NC(=O)Nc3ccc(Cl)c(C(F)(F)F)c3)cc2)ccn1 -9

====

# test_target: MARK4 (human)
# test_name: Caliper, Mobility shift assay off-chip
# experimental_context: compound 0.02 µM
assay_endpoint: inhibition (%)
Numeric answer only, unit % assumed.

CNC(=O)c1cc(Oc2ccc(NC(=O)Nc3ccc(Cl)c(C(F)(F)F)c3)cc2)ccn1 :: 1.4
COc1cc2c(Oc3ccc4[nH]c(C)cc4c3F)ncnc2cc1OCCCN1CCCC1 :: -7.1
CNC(=O)c1ccccc1Sc1ccc2c(/C=C/c3ccccn3)n[nH]c2c1 :: -4.7

Note: attention shifts to another entry.
Provide inhibition, tested on MARK4 (human), for Cc1ccc(Nc2nccc(N(C)c3ccc4c(C)n(C)nc4c3)n2)cc1S(N)(=O)=O . -4.1

====

# test_target: CHUK (human) (UniProt O15111)
# Sequence (O15111 whole entry, looked up): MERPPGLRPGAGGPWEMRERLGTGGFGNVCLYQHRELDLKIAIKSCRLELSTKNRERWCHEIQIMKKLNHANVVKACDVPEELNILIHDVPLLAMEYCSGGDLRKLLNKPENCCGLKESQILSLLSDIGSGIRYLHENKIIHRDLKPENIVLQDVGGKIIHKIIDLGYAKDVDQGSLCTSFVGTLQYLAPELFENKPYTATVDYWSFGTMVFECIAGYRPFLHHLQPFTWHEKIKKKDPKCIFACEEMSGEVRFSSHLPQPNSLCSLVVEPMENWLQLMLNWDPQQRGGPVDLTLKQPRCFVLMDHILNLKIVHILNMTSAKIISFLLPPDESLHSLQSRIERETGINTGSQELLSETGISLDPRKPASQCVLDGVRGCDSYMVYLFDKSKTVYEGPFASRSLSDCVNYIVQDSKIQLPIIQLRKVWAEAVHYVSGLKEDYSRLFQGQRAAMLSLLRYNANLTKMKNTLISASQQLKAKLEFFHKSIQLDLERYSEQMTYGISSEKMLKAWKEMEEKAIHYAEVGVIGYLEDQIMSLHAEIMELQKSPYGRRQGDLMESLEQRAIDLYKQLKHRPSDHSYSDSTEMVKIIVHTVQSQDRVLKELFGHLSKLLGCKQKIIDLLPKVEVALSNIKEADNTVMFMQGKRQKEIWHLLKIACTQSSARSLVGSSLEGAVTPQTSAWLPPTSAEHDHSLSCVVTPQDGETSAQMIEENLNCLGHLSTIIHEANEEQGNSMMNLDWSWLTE
# test_name: Caliper, Mobility shift assay off-chip
# experimental_context: compound 0.02 µM
assay_endpoint: inhibition (%)
Numeric answer only, unit % assumed.

CNC(=O)c1ccccc1Sc1ccc2c(/C=C/c3ccccn3)n[nH]c2c1 :: 2.6

Fill in inhibition for record CNC(=O)c1cc(Oc2ccc(NC(=O)Nc3ccc(Cl)c(C(F)(F)F)c3)cc2)ccn1 3.4

Fill in inhibition for record Cc1ccc(Nc2nccc(N(C)c3ccc4c(C)n(C)nc4c3)n2)cc1S(N)(=O)=O -1.2

Fill in inhibition for record COc1cc2c(Oc3ccc4[nH]c(C)cc4c3F)ncnc2cc1OCCCN1CCCC1 5.3

====

# test_target: PTK2B (human) (UniProt Q14289)
# Sequence (Q14289 whole entry, looked up): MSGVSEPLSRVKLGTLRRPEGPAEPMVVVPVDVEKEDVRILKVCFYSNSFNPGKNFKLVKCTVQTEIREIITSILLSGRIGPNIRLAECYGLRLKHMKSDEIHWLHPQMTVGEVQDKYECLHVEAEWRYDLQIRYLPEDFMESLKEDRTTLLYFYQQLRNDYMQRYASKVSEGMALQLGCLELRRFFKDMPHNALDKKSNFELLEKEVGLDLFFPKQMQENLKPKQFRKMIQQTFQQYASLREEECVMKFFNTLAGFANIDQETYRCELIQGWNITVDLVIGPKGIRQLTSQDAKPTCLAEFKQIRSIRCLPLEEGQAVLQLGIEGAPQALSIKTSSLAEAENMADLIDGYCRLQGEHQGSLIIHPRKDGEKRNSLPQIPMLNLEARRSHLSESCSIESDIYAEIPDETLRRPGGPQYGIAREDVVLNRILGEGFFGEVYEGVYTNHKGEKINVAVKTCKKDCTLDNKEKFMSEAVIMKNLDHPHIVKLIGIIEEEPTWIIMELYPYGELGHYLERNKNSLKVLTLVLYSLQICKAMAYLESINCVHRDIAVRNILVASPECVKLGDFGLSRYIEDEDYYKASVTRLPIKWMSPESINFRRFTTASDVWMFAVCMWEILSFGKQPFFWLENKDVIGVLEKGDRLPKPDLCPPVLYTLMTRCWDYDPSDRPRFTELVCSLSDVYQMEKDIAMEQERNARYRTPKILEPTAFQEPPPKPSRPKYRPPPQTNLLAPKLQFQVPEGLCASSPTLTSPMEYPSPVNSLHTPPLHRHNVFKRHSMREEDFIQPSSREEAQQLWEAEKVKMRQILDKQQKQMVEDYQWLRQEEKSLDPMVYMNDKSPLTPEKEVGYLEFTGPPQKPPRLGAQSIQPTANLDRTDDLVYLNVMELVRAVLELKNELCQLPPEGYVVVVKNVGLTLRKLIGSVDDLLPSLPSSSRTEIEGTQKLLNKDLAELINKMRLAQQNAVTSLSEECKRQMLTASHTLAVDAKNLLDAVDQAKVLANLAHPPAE
# test_name: Caliper, Mobility shift assay off-chip
# experimental_context: compound 0.02 µM
# inhibition listing for each entry below
Note: a bare number is incomplete; add the unit.

CNC(=O)c1ccccc1Sc1ccc2c(/C=C/c3ccccn3)n[nH]c2c1 :: -1.4%
CNC(=O)c1cc(Oc2ccc(NC(=O)Nc3ccc(Cl)c(C(F)(F)F)c3)cc2)ccn1 :: -2.8%
COc1cc2c(Oc3ccc4[nH]c(C)cc4c3F)ncnc2cc1OCCCN1CCCC1 :: -1.9%

Fill in inhibition for record Cc1ccc(Nc2nccc(N(C)c3ccc4c(C)n(C)nc4c3)n2)cc1S(N)(=O)=O -0.4%

====

# test_target: TSSK2 (human) (UniProt Q96PF2)
# Sequence (Q96PF2 whole entry, looked up): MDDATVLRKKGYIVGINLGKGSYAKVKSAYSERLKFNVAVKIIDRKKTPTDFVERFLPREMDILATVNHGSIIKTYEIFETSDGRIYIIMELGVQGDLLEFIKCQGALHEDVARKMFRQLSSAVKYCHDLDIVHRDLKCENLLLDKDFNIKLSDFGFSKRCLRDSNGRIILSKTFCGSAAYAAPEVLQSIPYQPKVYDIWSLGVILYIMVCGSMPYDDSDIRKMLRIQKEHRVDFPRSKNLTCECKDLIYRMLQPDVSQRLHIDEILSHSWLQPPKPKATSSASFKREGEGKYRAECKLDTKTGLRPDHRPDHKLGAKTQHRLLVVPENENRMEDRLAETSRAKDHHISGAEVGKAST
# test_name: Caliper, Mobility shift assay off-chip
# experimental_context: compound 0.2 µM
assay_endpoint: inhibition (%)
Numeric answer only, unit % assumed.

CNC(=O)c1cc(Oc2ccc(NC(=O)Nc3ccc(Cl)c(C(F)(F)F)c3)cc2)ccn1 :: -2.4
Cc1ccc(Nc2nccc(N(C)c3ccc4c(C)n(C)nc4c3)n2)cc1S(N)(=O)=O :: -2.4
COc1cc2c(Oc3ccc4[nH]c(C)cc4c3F)ncnc2cc1OCCCN1CCCC1 :: -3.4

Note: attention shifts to another entry.
Fill in inhibition for record CCN(CC)CCNC(=O)c1c(C)[nH]c(/C=C2\C(=O)Nc3ccc(F)cc32)c1C -0.6
